- Tested on: MCF10A
- assay.overview: percent viability (nuclei count relative to siNT); higher = more viable cells
- measurement.parameters: 20 nM; 72 h
Catalogue of sequences with associated percent viability
Numeric only. Scale: %

A selection of reference data follows.
- seq: "UGGGAGCUAAGCUAUGGGUAU [hsa-miR-5591-5p]"
  measured.on: "MCF10A"
  percent viability, %: 13.9
- seq: "UCAAAUGCUCAGACUCCUGUGGU [hsa-miR-105-5p]"
  measured.on: "MCF10A"
  percent viability, %: 37.7

Sample AAAAUGGUUCCCUUUAGAGUGU [hsa-miR-522-3p] ; percent viability observed: 66.3

CCUCCUGCCCUCCUUGCUGU [hsa-miR-1976] yielded percent viability of 79.5

Record AUAACAUUGUAAAGCGCUUCUUUCG [hsa-miR-3143] , field percent viability: 68.7

Per the records, this sequence ( UAGUCCCUUCCUUGAAGCGGUC [hsa-miR-2114-5p] ) has percent viability equal to 25.2

Field percent viability (entry UCACAAGUCAGGCUCUUGGGAC [hsa-miR-125b-2-3p] ) reads 37.1

# percent viability (sequence: UGGGAGGAGGGGAUCUUGGG [hsa-miR-7106-5p] ) is 34.9

The sequence listed as AAGCAAUACUGUUACCUGAAAU [hsa-miR-3942-5p] has a reported percent viability of 36.6

Lookup result for UUCCAUGCCUCCUAGAAGUUCC [hsa-miR-5581-3p] ; measured percent viability: 57.3

# percent viability of CAGUGGUUUUACCCUAUGGUAG [hsa-miR-140-5p] = 61.4
